# EXPERIMENTAL TARGET: Human KLK1 (Homo sapiens (Human))
# Sequence (P06870 25-262): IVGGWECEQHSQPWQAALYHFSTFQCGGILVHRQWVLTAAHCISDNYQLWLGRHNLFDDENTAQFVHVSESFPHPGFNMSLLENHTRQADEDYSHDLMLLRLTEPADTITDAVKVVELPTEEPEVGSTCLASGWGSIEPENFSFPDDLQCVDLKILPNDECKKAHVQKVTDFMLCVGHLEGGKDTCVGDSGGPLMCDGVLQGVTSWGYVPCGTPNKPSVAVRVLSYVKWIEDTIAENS
# ASSAY NOTES: Determination of the IC50 for KLK1
# Type: biochemical
# SETUP CONDITIONS: Human KLK1, 37° C., substrate H-DVal-Leu-Arg-AFC; Table 12

{"CHEMICAL STRUCTURE": "CCCN(CCC)[C@H](CC1CCCCC1)C(=O)N[C@@H](Cc1ccccc1)C(=O)NCc1ccc(CN)cc1", "IC50": "> 10 µM"}
{"CHEMICAL STRUCTURE": "CN(CC(N)=O)[C@H](CC1CCCCC1)C(=O)N[C@@H](Cc1ccccc1)C(=O)NCc1ccc(CN)cc1", "IC50": "> 10 µM"}
{"CHEMICAL STRUCTURE": "CC(C)C[C@@H](NCC(=O)O)C(=O)N[C@@H](Cc1ccccc1)C(=O)NCc1ccc(CN)cc1", "IC50": "> 10 µM"}
{"CHEMICAL STRUCTURE": "CN[C@H](CC1CCCCC1)C(=O)N[C@@H](Cc1ccccc1)C(=O)NCc1ccc(CN)c(F)c1", "IC50": "> 10 µM"}
{"CHEMICAL STRUCTURE": "CN(C)[C@H](CC1CCCCC1)C(=O)N[C@@H](Cc1ccccc1)C(=O)NCc1ccc(CN)cc1", "IC50": "> 1 µM"}
{"CHEMICAL STRUCTURE": "NCc1ccc(CNC(=O)[C@H](Cc2ccccc2)NC(=O)[C@@H](CC2CCCCC2)NCC(=O)O)cc1", "IC50": "> 10 µM"}
{"CHEMICAL STRUCTURE": "CCOc1ccc(C[C@@H](NC(=O)CC)C(=O)N[C@@H](Cc2ccc(Cl)c(Cl)c2)C(=O)NCc2ccc(CN)cc2)cc1", "IC50": "4.9 µM"}

====

# ASSAY NOTES: physchem
# SETUP CONDITIONS: pH 7, aqueous buffer, kinetic from dmso stock
METRIC: solubility (µM)

{"MOLECULE": "CCOc1ccc(C[C@@H](NC(=O)c2ccc(-c3ccccc3)cc2)C(=O)N[C@@H](Cc2ccccc2)C(=O)NCc2ccc(CN)cc2)cc1 [Example 57]", "NUMERIC VALUE": 36}
{"MOLECULE": "CCOc1ccc(C[C@@H](NC(=O)c2cccc3ccccc23)C(=O)N[C@@H](Cc2ccccc2)C(=O)NCc2ccc(CN)cc2)cc1 [Example 54]", "NUMERIC VALUE": 12}
{"MOLECULE": "CCOc1ccc(C[C@@H](NC(=O)c2ccc(Cl)cc2Cl)C(=O)N[C@@H](Cc2ccccc2)C(=O)NCc2ccc(CN)cc2)cc1 [Example 58]", "NUMERIC VALUE": 36}
{"MOLECULE": "CCOc1ccc(C[C@@H](NC(=O)c2ccc(C(F)(F)F)cc2)C(=O)N[C@@H](Cc2ccccc2)C(=O)NCc2ccc(CN)cc2)cc1 [Example 56]", "NUMERIC VALUE": 36}
{"MOLECULE": "CCC(=O)N[C@H](CC1CCCCC1)C(=O)N[C@@H](Cc1ccc(Cl)c(Cl)c1)C(=O)NCc1ccc(CN)cc1 [Example 21]", "NUMERIC VALUE": 12}
{"MOLECULE": "CCOc1ccc(C[C@@H](NC(=O)c2ccc(Cl)cc2)C(=O)N[C@@H](Cc2ccccc2)C(=O)NCc2ccc(CN)cc2)cc1 [Example 55]", "NUMERIC VALUE": 36}
{"MOLECULE": "CCOc1ccc(C[C@@H](NC(=O)c2ccc(F)c(F)c2)C(=O)N[C@@H](Cc2ccccc2)C(=O)NCc2ccc(CN)cc2)cc1 [Example 59]", "NUMERIC VALUE": 36}
{"MOLECULE": "CCOc1ccc(C[C@@H](NC(=O)c2ccccc2)C(=O)N[C@@H](Cc2ccccc2)C(=O)NCc2ccc(CN)cc2)cc1 [Example 3]", "NUMERIC VALUE": 12}

The measured values listed here are drawn from patent US9234000B2.
